Where do these numbers come from? They come from ChEMBL document CHEMBL5338816.

Target: Bombesin receptor subtype-3 (Mus musculus)
Sequence (O54798 whole entry): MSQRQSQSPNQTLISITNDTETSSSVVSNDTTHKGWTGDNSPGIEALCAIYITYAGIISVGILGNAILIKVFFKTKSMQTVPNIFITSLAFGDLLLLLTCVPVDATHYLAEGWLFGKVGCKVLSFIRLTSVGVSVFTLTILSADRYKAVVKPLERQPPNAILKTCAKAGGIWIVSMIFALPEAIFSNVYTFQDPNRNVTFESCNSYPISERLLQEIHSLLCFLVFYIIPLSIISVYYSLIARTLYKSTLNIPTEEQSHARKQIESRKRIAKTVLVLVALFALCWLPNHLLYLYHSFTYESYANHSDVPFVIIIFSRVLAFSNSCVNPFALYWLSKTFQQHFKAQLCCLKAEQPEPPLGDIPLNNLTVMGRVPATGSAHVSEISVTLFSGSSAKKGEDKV
Test: Agonist activity at mouse BB3 stably overexpressed in human HEK cells assessed as increase in intracellular calcium response and measured for 3 mins by FLIPR calcium 6 assay
Format: functional, cell-based
RECORDED_METRIC: EC50 (nM)
One number for each entry, in nM.

In the examples that follow, each entry is paired with its recorded EC50.
O[C@@](Cc1nc(CC2(C(F)(F)F)CC2)c[nH]1)(c1ccc(-n2cccn2)cc1)C(F)(F)F: 2.99
C=CC(C)(C)C(OC(=O)c1ccco1)c1cc(OC)c2c(c1OC)/C(=N/O)C=C/C2=N\O (stereo not drawn): 67

Shift focus to the following entry.
I'd like to know its EC50. The compound in question is COc1cc(C(O)CC=C(C)C)c(OC)c2c1/C(=N/O)C=C/C2=N\O (stereo not drawn)
780

====

I'd appreciate it if you could supply pEC50 values for the items below.
Biological target: Bombesin receptor subtype-3 (Homo sapiens)
Sequence (P32247 whole entry): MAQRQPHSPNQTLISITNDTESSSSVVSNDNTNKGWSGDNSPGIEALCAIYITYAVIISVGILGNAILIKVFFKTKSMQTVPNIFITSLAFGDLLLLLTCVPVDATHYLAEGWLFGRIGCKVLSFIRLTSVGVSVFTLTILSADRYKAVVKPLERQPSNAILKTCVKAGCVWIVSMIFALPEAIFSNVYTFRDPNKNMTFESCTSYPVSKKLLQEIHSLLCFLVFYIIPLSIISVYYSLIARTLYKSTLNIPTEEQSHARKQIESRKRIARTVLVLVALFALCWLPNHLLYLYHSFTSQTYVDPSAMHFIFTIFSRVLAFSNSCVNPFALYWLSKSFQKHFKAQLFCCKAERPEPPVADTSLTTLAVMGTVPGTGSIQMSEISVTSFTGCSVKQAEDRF
Assay: Agonist activity at human BB3 stably overexpressed in human NCI-H1299 cells assessed as increase in IP-1 accumulation incubated for 60 mins by HTRF assay
Format: functional, cell-based
pEC50: −log10 of the molar value.

In the examples that follow, each entry is paired with its recorded pEC50.
COc1cc(C(CC=C(C)C)OCCC(C)C)c(OC)c2c1/C(=N/OC(=O)c1ccccc1)C=C/C2=N\OC(=O)c1ccccc1 (stereo not drawn): < 5.00
C=CC(C)(C)C(OCCCO)c1cc(OC)c2c(c1OC)/C(=N/O)C=C/C2=N\O (stereo not drawn): < 5.00

Shift focus to the following entry.
I'd like to know its pEC50. The compound in question is C=CC(C)(C)C(O)c1cc(OC)c2c(c1OC)/C(=N/O)C=C/C2=N\O (stereo not drawn)
< 5.00
